# assayed.target: humanized rat COMT (hrCOMT), catechol-O-methyltransferase (Rattus norvegicus, UniProt P22734, M134I/Y138C)
# Sequence (P22734 44-264 M134I/Y138C): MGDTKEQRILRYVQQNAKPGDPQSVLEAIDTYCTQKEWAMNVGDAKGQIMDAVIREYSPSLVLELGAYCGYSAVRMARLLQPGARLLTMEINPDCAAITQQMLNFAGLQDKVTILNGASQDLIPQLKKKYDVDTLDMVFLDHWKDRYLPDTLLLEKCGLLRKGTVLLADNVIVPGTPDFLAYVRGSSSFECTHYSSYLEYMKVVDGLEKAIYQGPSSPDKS
# protocol.details: co-crystal structure ([…]) at […] Å; IC50 from activity-based high-throughput screen
# Format: biochemical
test.readout: pIC50
Please keep in mind that pIC50 is minus log10 of the molar concentration; only the number is needed.

Quick check: pIC50 of N=C(N)c1ccc(NC(=O)Nc2cccc(CN)c2)cc1 ?
5.36
